target desc: human type 1 glycine transporter (GlyT1) (Homo sapiens, UniProt P48067)
Construct: Glioma T98G cells endogenously expressing human type 1 glycine transporter (GlyT1) were used; endogenous in cells; host or cells: T98G human glioma cells
assay details: Glycine uptake inhibition experiment ([3H]glycine uptake in T98G cells)
Assay type: cell-based
experimental context: [3H]glycine 250 nM, 15 min, room temperature, read-out: glycine uptake inhibitory activity (IC50 value), bounds
Protocol: A glycine uptake experiment was conducted as described in Neuron, 8, 927-935, 1992. Glioma T98G cells endogenously expressing human type 1 glycine transporter (GlyT1) were used. T98G cells were seeded in a 96-well plate at 2.0×10^4 cells/well and cultured overnight in a CO2 incubator. […] The amount of glycine uptake was determined by measuring radioactivity in the cell lysate using a liquid scintillation counter. […]
Catalogue of IC50 readings, one per entry.

Previously resolved entries follow.
compound structure: CC(C)N(Cc1ccc(Cl)c(-c2ccc(F)cc2)c1)C(=O)c1cn(C)cn1
IC50: ≥ 100 nM
//
compound structure: CC(C)N(Cc1ccc(F)c(-c2ccc(C(F)(F)F)cc2)c1)C(=O)c1cn(C)cn1
IC50: ≥ 100 nM
//
compound structure: CC(C)N(Cc1cc(-c2ccc(F)cc2)cc(C(F)(F)F)c1)C(=O)c1cn(C)cn1
IC50: > 1000 nM

Sure, the documented IC50 for `COc1ccc(CN(C(=O)c2cn(C)cn2)C(C)C)cc1-c1ccc(F)cc1` is > 1000 nM

Sure, the documented IC50 for `CC(C)CN(Cc1ccc(F)c(-c2ccc(F)c(F)c2)c1)C(=O)c1cn(C)cn1` is ≥ 100 nM

Sure, the documented IC50 for `CC(C)N(Cc1ccc(F)c(-c2cc(F)c(F)c(F)c2)c1)C(=O)c1c[nH]cn1` is > 1000 nM

Sure, the documented IC50 for `CC(C)N(Cc1cc(OC(F)(F)F)cc(-c2ccc(F)cc2)c1)C(=O)c1cn(C)cn1` is > 1000 nM

Sure, the documented IC50 for `CC(C)N(Cc1ccc(F)c(-c2ccc(OC(F)(F)F)cc2)c1)C(=O)c1ncn(C)n1` is ≥ 100 nM

====

target desc: human type 1 glycine transporter (GlyT1) (Homo sapiens, UniProt P48067)
Construct: Glioma T98G cells endogenously expressing human type 1 glycine transporter (GlyT1) were used; endogenous in cells; host or cells: T98G human glioma cells
Sequence (P48067 1-706): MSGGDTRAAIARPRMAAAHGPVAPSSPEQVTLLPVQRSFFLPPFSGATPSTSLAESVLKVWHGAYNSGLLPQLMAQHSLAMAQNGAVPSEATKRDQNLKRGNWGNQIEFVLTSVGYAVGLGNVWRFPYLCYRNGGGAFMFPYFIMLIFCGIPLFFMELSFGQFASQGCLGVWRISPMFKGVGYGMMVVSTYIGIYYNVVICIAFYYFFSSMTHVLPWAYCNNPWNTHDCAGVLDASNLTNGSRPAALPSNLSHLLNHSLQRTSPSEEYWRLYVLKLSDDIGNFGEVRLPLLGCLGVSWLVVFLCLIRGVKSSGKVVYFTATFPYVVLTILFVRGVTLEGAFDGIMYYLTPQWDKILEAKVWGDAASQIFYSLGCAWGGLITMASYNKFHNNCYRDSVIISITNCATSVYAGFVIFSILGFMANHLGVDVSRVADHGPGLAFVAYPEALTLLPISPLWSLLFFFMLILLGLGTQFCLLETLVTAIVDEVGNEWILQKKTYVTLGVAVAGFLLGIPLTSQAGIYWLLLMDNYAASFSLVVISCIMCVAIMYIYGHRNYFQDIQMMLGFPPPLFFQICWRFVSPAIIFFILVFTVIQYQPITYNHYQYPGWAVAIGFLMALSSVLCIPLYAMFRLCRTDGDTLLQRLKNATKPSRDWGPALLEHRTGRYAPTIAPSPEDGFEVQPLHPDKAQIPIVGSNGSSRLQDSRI
assay details: Glycine uptake inhibition experiment ([3H]glycine uptake in T98G cells)
Type: cell-based
experimental context: [3H]glycine 250 nM, 15 min, room temperature, read-out: glycine uptake inhibitory activity (IC50 value)
Catalogue of pIC50 readings, one per entry.
As a rule, pIC50 stands for the negative log10 of the concentration, concentration in M.

molecule: CC(C)N(Cc1ccc(F)c(-c2cc(F)cc(C#N)c2)c1)C(=O)c1cn(C)cn1
pIC50: 7.31

Sure, the documented pIC50 for `Cn1cnc(C(=O)N(Cc2ccc(F)c(-c3cccc(CO)c3)c2)C2CCCCC2)c1` is 7.96
